Molecular target: Dihydrofolate reductase (Candida albicans, UniProt P22906)
Sequence (P22906 whole entry): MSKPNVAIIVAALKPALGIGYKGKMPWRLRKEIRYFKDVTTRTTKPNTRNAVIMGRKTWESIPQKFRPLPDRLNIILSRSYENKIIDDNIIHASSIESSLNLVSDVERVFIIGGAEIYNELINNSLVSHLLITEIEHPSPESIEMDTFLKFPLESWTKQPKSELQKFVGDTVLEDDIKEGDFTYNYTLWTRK
outcomeMeasure: pIC50
When answering, recall that pIC50 equals minus log10 of the concentration in mol/L, and write that number alone.

INPUT: Which pIC50 value is on record for COc1ccc(OC)c(C(C#Cc2c(C)nc(N)nc2N)OC)c1 (racemic) ?
OUTPUT: 6.26

INPUT: Which pIC50 value is on record for COc1cc(C(C)C#Cc2c(C)nc(N)nc2N)ccc1-c1ccccc1 (racemic) ?
OUTPUT: 7.26

INPUT: Which pIC50 value is on record for COc1cc(-c2ccccc2)cc([C@H](C)C#Cc2c(C)nc(N)nc2N)c1 ?
OUTPUT: 7.43

INPUT: Which pIC50 value is on record for COc1cc(CC#Cc2c(C)nc(N)nc2N)cc(OC)c1OC ?
OUTPUT: 6.74

INPUT: Which pIC50 value is on record for COc1cc(-c2ccccc2)cc([C@@H](C)C#Cc2c(C)nc(N)nc2N)c1 ?
OUTPUT: 7.48

Now consider the entry below.
INPUT: Which pIC50 value is on record for CCCc1nc(N)nc(N)c1C#CCc1cc(OC)ccc1OC ?
OUTPUT: 7.35
